- measured_target: Cytochrome P450 1A2 (Homo sapiens) (UniProt P05177)
- Sequence (P05177 whole entry, looked up): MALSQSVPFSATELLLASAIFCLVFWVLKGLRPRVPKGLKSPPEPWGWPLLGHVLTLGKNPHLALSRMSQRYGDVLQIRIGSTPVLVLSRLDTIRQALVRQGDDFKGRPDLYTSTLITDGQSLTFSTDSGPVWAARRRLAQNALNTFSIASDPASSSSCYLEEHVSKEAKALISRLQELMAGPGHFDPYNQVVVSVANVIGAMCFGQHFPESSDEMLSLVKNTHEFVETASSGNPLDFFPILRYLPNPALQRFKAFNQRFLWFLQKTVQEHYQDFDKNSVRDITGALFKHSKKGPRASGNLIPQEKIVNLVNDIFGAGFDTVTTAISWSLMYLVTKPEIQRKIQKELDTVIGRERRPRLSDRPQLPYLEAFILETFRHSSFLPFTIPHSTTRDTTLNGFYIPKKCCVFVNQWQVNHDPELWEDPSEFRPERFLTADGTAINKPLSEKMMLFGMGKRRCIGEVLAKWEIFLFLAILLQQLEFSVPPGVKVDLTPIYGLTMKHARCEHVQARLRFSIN
- experiment_description: p450-cyp1a2 (AID 410); also: potency is read from the fitted curve at half-maximal effect
- settings: recombinant CYP1A2, luciferin-ME demethylation, luminescence; series mostly up to 57 µM
Records with an inconclusive call do not appear. Calls of active or inactive are those of the source. Calls follow the shape of the full dose curve.
measured_attribute: Potency

• Cc1noc(C)c1C(=O)N1CCC2(CC1)CN(C(=O)Nc1cccc(F)c1)C2 = inactive
• CC(C)NC(=O)N1CCC2(CC1)CCN(C(=O)c1ccncc1)CC2 = inactive
• CCNc1ncc2nc(-c3cn(C)c4ccccc34)c(=O)n(-c3ccccc3)c2n1 = 15.8 µM (active)
• c1csc(CNc2cc(-c3ccoc3)ncn2)c1 = 2 µM (active)
• COc1ccc(C(=O)N2CCC3(CC2)CN(Cc2ccc(C#N)cc2)C3)cc1 = inactive
• Cc1noc(C)c1-c1cc(NCc2cccnc2)ncn1 = 1 µM (active)
• CS(=O)(=O)Nc1cccc(-c2ccc3ncnc(NCCN4CCOCC4)c3c2)c1 = 25.1 µM (active)
• COc1ccc(-n2c(=O)cnc3cnc(N(C)C)nc32)cc1 = 5.01 µM (active)
• c1csc(CNc2ccnc(-c3ccoc3)n2)c1 = 1 µM (active)
• O=C(Nc1cccc(F)c1)N1CC[C@@]2(CCCNC2)C1 = inactive
• O=S(=O)(c1ccccc1)N1CCC2(CCN(C(c3ccccc3)c3ccccc3)CC2)CC1 = inactive
• CC(C)NC(=O)N1CCC2(CC1)CCN(C(=O)c1cccc(F)c1)CC2 = inactive
• Cc1ccccc1-c1nccc(NCc2cccs2)n1 = 0.501 µM (active)
• O=C(c1cnccn1)N1CCC[C@@]2(CCN(Cc3nccs3)C2)C1 = inactive
• O=c1c(-c2cc(F)cc(F)c2)nc2cnc(N3CCNCC3)nc2n1C1CC1 = 3.16 µM (active)
• CC(=O)N1CCC2(CC1)CCN(C(=O)Nc1cccc(F)c1)CC2 = inactive
• COCCn1c(=O)c(-c2ccccc2)nc2cnc(Oc3ccc(OC)cc3)nc21 = 1.26 µM (active)
• CC(=O)NCCc1ccc(O)c(O)c1 = inactive
• Cc1noc(C)c1C(=O)N1CCC[C@@]2(CCN(Cc3ccccc3)C2)C1 = inactive
• O=c1c(-c2ccc(Cl)cc2)nc2cnc(N3CCNCC3)nc2n1Cc1cccs1 = 12.6 µM (active)
• CCNc1ncc2nc(C)c(=O)n(C3CC3)c2n1 = 5.01 µM (active)
• Cn1c(=O)c(-c2cccs2)nc2cnc(N3CCNCC3)nc21 = 10 µM (active)
• O=C(c1csnn1)N1CCC2(CC1)CN(c1ccccc1)C2 = inactive

Reference source for all entries: PubChem BioAssay (NCATS)
